Target: Aurora kinase A (AURKA) (Homo sapiens, UniProt O14965)
Construct: endogenous in cells; host or cells: HeLa LgBit (AURKA-HiBit KI), CRISPR/Cas9 knock-in at the endogenous AURKA locus
Assay: Luciferase assay for AURKA in HeLa LgBit (AURKA-HiBit KI) cell line
Assay type: cell-based
Conditions: 10 nM compound, HeLa LgBit (AURKA-HiBit KI) cells, measured after 12 hours
Method: HeLa cell lines that stably express LgBit were constructed via LgBit vector transfection. Then, donor DNA and guide RNA for insertion of HiBit amino acid sequence at C-terminus of inherent Aurora kinase A (AURKA) genes were designed and constructed. […] The present compounds were fully dissolved in DMSO (Sigma-Aldrich Cat. No. D2438, Lot. No. RNBL7287) and 10 nM or 100 nM of total concentration were used in the experiment. […] The luminescence value was analyzed through an Excel program.
quantityName: luminescence value (Level)

CN(c1ccc(N2CCC(CN3CCN(C(=O)Cc4ccc(Nc5ncc(F)c(Nc6ccc(C(=O)Nc7ccccc7Cl)cc6)n5)cc4)CC3)CC2)cc1)C1CCC(=O)NC1=O (stereo not shown)
B (B is 0.3 to 0.5)
O=C1CCC(c2ccc(N3CCC(CN4CCC(NC(=O)c5ccc(Nc6ncc(F)c(Nc7ccc(C(=O)Nc8ccccc8Cl)cc7)n6)cc5)CC4)C3)cc2)C(=O)N1 (stereo not shown)
B (B is 0.3 to 0.5)

----------
Molecular target: Aurora kinase A (AURKA) (Homo sapiens, UniProt O14965)
Construct: endogenous in cells; host or cells: HeLa LgBit (AURKA-HiBit KI), CRISPR/Cas9 knock-in at the endogenous AURKA locus
Test: Luciferase assay for AURKA in HeLa LgBit (AURKA-HiBit KI) cell line
Type: cell-based
Conditions: 100 nM compound, HeLa LgBit (AURKA-HiBit KI) cells, measured after 12 hours
Experimental: HeLa cell lines that stably express LgBit were constructed via LgBit vector transfection. Then, donor DNA and guide RNA for insertion of HiBit amino acid sequence at C-terminus of inherent Aurora kinase A (AURKA) genes were designed and constructed. […] The present compounds were fully dissolved in DMSO (Sigma-Aldrich Cat. No. D2438, Lot. No. RNBL7287) and 10 nM or 100 nM of total concentration were used in the experiment. […] The luminescence value was analyzed through an Excel program.
quantityName: luminescence value (Level)

Here is how some compounds turned out for luminescence value (Level).
O=C1CCC(c2ccc(N3CCC(N4CCC5(CC4)CC(NC(=O)c4ccc(Nc6ncc(F)c(Nc7ccc(C(=O)Nc8ccccc8Cl)cc7)n6)cc4)C5)CC3)c(F)c2)C(=O)N1 (centres unmarked) [Compound 21]
A (A is <0.2)
O=C1CCC(c2ccc(N3CCN(CC(=O)N4CCC(NC(=O)c5ccc(Nc6ncc(F)c(Nc7ccc(C(=O)Nc8ccccc8Cl)cc7)n6)cc5)CC4)CC3)cc2)C(=O)N1 (centres unmarked) [Compound 5]
A (A is <0.2)
O=C1CCC(Nc2ccc(N3CCC(CN4CCN(C(=O)Cc5ccc(Nc6ncc(F)c(Nc7ccc(C(=O)Nc8ccccc8Cl)cc7)n6)cc5)CC4)CC3)cc2)C(=O)N1 (centres unmarked) [Compound 24]
A (A is <0.2)
O=C1CCC(Nc2cccc(N3CCC(CN4CCN(C(=O)Cc5ccc(Nc6ncc(F)c(Nc7ccc(C(=O)Nc8ccccc8Cl)cc7)n6)cc5)CC4)CC3)c2)C(=O)N1 (centres unmarked) [Compound 25]
B (B is 0.2 to 0.4)
CN(CC1CCN(c2ccc(NC3CCC(=O)NC3=O)cc2)CC1)[C@H]1CC[C@H](NC(=O)c2ccc(Nc3ncc(F)c(Nc4ccc(C(=O)Nc5ccccc5Cl)cc4)n3)cc2)CC1 (some centres unmarked) [Compound 69]
A (A is <0.2)

Provide Aurora kinase A (AURKA) (Homo sapiens, UniProt O14965) luminescence value (Level) reading for O=C1CCC(c2ccc(N3CCN(CCC4CCN(C(=O)c5ccc(Nc6ncc(F)c(Nc7ccc(C(=O)Nc8ccccc8Cl)cc7)n6)cc5)CC4)CC3)cc2)C(=O)N1 (centres unmarked) [Compound 110] .
B (B is 0.2 to 0.4)

For Aurora kinase A (AURKA) (Homo sapiens, UniProt O14965), give the measured luminescence value (Level) of the entry O=C1CC[C@H](NC(=O)c2ccc(N3CCN(CCC4CCN(NC(=O)c5ccc(Nc6ncc(F)c(Nc7ccc(C(=O)Nc8ccccc8Cl)cc7)n6)cc5)CC4)CC3)cc2F)C(=O)N1 [Compound 89]
B (B is 0.2 to 0.4)

----------
Biological target: Aurora kinase A (AURKA) (Homo sapiens)
Construct: endogenous in cells; host or cells: HeLa LgBit (AURKA-HiBit KI), CRISPR/Cas9 knock-in at the endogenous AURKA locus
Sequence (O14965 1-403): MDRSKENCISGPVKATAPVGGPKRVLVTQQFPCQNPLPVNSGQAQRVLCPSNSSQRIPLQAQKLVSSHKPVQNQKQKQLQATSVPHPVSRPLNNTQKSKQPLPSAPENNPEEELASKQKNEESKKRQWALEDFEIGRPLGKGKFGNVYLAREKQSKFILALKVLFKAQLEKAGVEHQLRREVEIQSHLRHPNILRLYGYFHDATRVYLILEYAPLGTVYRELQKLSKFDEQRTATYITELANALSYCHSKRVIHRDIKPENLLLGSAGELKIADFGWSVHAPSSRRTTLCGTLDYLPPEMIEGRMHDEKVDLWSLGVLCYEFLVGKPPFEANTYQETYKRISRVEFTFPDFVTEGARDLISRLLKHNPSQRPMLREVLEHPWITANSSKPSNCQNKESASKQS
Assay: Luciferase assay for AURKA in HeLa LgBit (AURKA-HiBit KI) cell line
Format: cell-based
Conditions: 100 nM compound, HeLa LgBit (AURKA-HiBit KI) cells, measured after 12 hours
quantityName: luminescence value (Level)

O=C1CCC(NC(=O)c2ccc(N3CCC(CN4CCN(C(=O)Cc5ccc(Nc6ncc(F)c(Nc7ccc(C(=O)Nc8ccccc8Cl)cc7)n6)cc5)CC4)CC3)cc2)C(=O)N1 (stereo not shown)
B (B is 0.2 to 0.4)
CN(c1cccc(N2CCC(CN3CCN(C(=O)Cc4ccc(Nc5ncc(F)c(Nc6ccc(C(=O)Nc7ccccc7Cl)cc6)n5)cc4)CC3)CC2)c1)C1CCC(=O)NC1=O (stereo not shown)
B (B is 0.2 to 0.4)
O=C1CCC(c2ccc(C#CC3CCN(C4CCN(C(=O)Cc5ccc(Nc6ncc(F)c(Nc7ccc(C(=O)Nc8ccccc8Cl)cc7)n6)cc5)CC4)CC3)cc2)C(=O)N1 (stereo not shown)
B (B is 0.2 to 0.4)
O=C1CC[C@@H](Nc2ccc(N3CCN(CCC4CCN(NC(=O)c5ccc(Nc6ncc(F)c(Nc7ccc(C(=O)Nc8ccccc8Cl)cc7)n6)cc5)CC4)CC3)cc2F)C(=O)N1
A (A is <0.2)
O=C1CCC(c2ccc(N3CCN(CCC4CCN(NC(=O)c5ccc(Nc6ncc(F)c(Nc7ccc(NC(=O)c8ccccc8F)cc7)n6)cc5)CC4)CC3)cc2)C(=O)N1 (stereo not shown)
A (A is <0.2)

Now examine the next entry.
Please tell me the measured luminescence value (Level) for CCC(CN1CCN(c2ccc(C3CCC(=O)NC3=O)cc2)CC1)C1CCN(NC(=O)c2ccc(Nc3ncc(F)c(Nc4ccc(C(=O)Nc5ccccc5Cl)cc4)n3)cc2)CC1 (stereo not shown) ; system: Aurora kinase A (AURKA) (Homo sapiens).
A (A is <0.2)
